Numbers sourced from BindingDB's records for doi:10.3109/14756366.2012.757222.

Experimental system: Carbonic anhydrase 1 (Homo sapiens)
Sequence (P00915 whole entry): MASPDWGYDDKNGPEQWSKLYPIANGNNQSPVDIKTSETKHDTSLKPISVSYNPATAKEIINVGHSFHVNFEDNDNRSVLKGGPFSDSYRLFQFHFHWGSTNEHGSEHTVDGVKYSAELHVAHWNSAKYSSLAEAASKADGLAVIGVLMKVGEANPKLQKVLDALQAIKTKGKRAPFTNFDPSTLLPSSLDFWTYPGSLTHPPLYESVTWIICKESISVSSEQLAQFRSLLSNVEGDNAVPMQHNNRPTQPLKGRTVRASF
Property measured: IC50 (µM)
Numbers only, in µM.

As a guide, the following entries are already answered.
# Chemical string, IC50, µM
records = [
    ("O=C1NS(=O)(=O)c2cc(NC(=S)Nc3ccc(Cl)cc3Cl)ccc21", 59.4),
    ("COc1ccc(NC(=O)Nc2ccc3c(c2)S(=O)(=O)NC3=O)cc1", 34.6),
]

I need IC50 for every entry listed below, if you could help.
1. O=C(Nc1ccc([N+](=O)[O-])cc1)Nc1ccc2c(c1)S(=O)(=O)NC2=O
2. O=C1NS(=O)(=O)c2cc(NC(=S)Nc3cc(Cl)cc(Cl)c3)ccc21
3. O=C(Nc1cccc(Cl)c1)Nc1ccc2c(c1)S(=O)(=O)NC2=O
4. O=C(Nc1ccc(Cl)c(Cl)c1)Nc1ccc2c(c1)S(=O)(=O)NC2=O
5. O=C(Nc1ccc(F)cc1)Nc1ccc2c(c1)S(=O)(=O)NC2=O

Reply text:
1. 54.2
2. 26.1
3. 39
4. 37.4
5. 42.6

Inquiry: Provide the documented IC50 with Carbonic anhydrase 1 (Homo sapiens) as the system for O=C1NS(=O)(=O)c2cc(NC(=S)Nc3ccccc3)ccc21
Reply text: 46.7
